system: Histone deacetylase 6 (Homo sapiens, UniProt Q9UBN7)
Sequence (Q9UBN7 whole entry): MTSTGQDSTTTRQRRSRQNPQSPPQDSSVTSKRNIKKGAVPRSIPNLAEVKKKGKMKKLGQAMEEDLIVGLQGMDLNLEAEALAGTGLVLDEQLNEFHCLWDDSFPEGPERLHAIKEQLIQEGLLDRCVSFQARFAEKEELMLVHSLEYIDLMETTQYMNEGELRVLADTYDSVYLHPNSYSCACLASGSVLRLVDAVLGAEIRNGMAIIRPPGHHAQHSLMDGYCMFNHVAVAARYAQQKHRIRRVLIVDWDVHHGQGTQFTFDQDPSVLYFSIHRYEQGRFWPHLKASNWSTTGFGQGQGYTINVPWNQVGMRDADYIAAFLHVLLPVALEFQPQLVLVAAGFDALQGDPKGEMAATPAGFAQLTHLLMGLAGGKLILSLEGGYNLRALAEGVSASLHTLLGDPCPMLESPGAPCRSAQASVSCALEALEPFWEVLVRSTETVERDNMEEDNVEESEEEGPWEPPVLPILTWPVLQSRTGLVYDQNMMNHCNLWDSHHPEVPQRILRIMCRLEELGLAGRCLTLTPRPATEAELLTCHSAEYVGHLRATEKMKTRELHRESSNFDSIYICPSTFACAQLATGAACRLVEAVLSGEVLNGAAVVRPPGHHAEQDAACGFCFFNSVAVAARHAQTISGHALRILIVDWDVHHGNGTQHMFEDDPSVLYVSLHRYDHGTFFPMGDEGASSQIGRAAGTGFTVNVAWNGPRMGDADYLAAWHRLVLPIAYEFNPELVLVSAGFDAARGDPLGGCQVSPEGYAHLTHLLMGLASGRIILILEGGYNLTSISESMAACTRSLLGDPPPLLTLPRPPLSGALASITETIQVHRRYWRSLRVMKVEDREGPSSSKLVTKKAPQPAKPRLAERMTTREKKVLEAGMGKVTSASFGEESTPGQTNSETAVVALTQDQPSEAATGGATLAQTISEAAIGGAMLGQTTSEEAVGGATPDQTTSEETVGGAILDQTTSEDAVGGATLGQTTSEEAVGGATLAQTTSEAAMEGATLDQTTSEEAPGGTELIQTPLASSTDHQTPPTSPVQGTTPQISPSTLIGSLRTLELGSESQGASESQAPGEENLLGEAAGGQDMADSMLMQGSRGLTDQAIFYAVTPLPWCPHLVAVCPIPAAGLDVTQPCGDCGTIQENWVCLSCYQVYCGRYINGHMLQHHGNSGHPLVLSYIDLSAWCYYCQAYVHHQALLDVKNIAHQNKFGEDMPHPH
pIC50: −log10 of the molar value.
metric: pIC50

smiles_repr: CCCCNNC(=O)c1ccc(Br)cc1
reported: 5.04

----------
system: Histone deacetylase 3/Nuclear receptor corepressor 2 [395-498] (Homo sapiens)
Sequence (O15379 whole entry): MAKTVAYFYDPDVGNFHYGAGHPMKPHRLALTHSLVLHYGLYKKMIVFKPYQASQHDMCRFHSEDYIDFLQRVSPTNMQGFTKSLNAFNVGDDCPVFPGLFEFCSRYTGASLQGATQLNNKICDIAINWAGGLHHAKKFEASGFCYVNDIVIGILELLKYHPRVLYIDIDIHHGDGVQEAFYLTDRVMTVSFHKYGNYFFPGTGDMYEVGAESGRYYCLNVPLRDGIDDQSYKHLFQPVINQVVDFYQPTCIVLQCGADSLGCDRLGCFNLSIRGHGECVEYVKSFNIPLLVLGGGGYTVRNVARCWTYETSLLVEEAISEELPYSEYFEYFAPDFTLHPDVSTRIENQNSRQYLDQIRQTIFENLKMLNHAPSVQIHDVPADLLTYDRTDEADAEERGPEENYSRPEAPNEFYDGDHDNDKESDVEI
Sequence (Q9Y618 395-498, further chain): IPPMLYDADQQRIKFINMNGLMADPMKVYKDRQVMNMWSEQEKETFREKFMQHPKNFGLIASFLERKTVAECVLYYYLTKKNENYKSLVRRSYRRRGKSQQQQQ
metric: log10 IC50 (log10 of the value in µM)

smiles_repr: CCCCNNC(=O)c1ccc(Cl)cc1
log10 IC50: 0.40

smiles_repr: CCCCCCNNC(=O)c1ccc(Br)cc1
log10 IC50: 1.30

smiles_repr: CCCCNNC(=O)c1ccc(F)cc1
log10 IC50: 0.25

smiles_repr: CCCCNNC(=O)c1ccc(OC(F)(F)F)cc1
log10 IC50: 0.13

smiles_repr: O=C(NNCC1CCCC1)c1ccc(Br)cc1
log10 IC50: 0.84

smiles_repr: CCCCCNNC(=O)c1ccc(Br)cc1
log10 IC50: -0.04

smiles_repr: O=C(NNCCC1CCCC1)c1ccc(Br)cc1
log10 IC50: 0.03

smiles_repr: CCCCNNC(=O)c1ccc(N(C)C)cc1
log10 IC50: -0.92

smiles_repr: CCCCNNC(=O)c1ccc(C(C)(C)C)cc1
log10 IC50: -1.15

smiles_repr: CN(C)c1ccc(C(=O)NNCC2CCCC2)cc1
log10 IC50: 0.22

smiles_repr: CCCCNNC(=O)c1ccc(OC)cc1
log10 IC50: -0.37

----------
system: Histone deacetylase 1/Nuclear receptor corepressor 2 [395-498] (Homo sapiens)
Sequence (Q13547 whole entry, one chain of several): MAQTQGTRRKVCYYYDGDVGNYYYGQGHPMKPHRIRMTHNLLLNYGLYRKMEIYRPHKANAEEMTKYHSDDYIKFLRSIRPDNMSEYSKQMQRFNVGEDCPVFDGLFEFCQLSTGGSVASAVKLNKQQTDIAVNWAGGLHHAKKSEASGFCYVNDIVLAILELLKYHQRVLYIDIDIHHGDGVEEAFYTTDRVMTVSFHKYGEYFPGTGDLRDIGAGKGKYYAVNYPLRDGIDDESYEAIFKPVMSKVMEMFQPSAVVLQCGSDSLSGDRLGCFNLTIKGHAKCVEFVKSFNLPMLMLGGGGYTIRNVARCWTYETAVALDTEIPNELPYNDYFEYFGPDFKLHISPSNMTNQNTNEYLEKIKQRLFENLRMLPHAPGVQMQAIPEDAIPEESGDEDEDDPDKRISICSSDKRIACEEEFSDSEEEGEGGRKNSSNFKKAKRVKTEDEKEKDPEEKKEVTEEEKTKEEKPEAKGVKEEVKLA

smiles_repr: CCCCNNC(=O)c1ccc(OC)cc1
u: µM
qualifier_sign: =
IC50: 1.91
--
smiles_repr: CCCCNNC(=O)c1ccc(OC(F)(F)F)cc1
u: µM
qualifier_sign: =
IC50: 8.86
--
smiles_repr: O=C(NNCCCC1CCCC1)c1ccc(Br)cc1
u: µM
qualifier_sign: >
IC50: 50
--
smiles_repr: CCCCCCNNC(=O)c1ccc(Br)cc1
u: µM
qualifier_sign: =
IC50: 10.3
--
smiles_repr: CCCCCNNC(=O)c1ccc(Br)cc1
u: µM
qualifier_sign: =
IC50: 1.87
--
smiles_repr: CCCCNNC(=O)c1ccc(F)cc1
u: µM
qualifier_sign: =
IC50: 13.2
--
smiles_repr: CCCCNNC(=O)c1ccc(Cl)cc1
u: µM
qualifier_sign: =
IC50: 3
--
smiles_repr: CCCCNNC(=O)c1ccc(C(C)(C)C)cc1
u: µM
qualifier_sign: =
IC50: 0.19
--
smiles_repr: O=C(NNCCC1CCCC1)c1ccc(Br)cc1
u: µM
qualifier_sign: =
IC50: 7.4
--
smiles_repr: CCCCNNC(=O)c1ccc(N(C)C)cc1
u: µM
qualifier_sign: =
IC50: 0.23
--
smiles_repr: O=C(NNCC1CCCC1)c1ccc(Br)cc1
u: µM
qualifier_sign: =
IC50: 8.81
--
smiles_repr: CN(C)c1ccc(C(=O)NNCC2CCCC2)cc1
u: µM
qualifier_sign: =
IC50: 1.76

----------
system: Histone deacetylase 2/Nuclear receptor corepressor 2 [395-498] (Homo sapiens, UniProt Q92769)
Sequence (Q92769 whole entry): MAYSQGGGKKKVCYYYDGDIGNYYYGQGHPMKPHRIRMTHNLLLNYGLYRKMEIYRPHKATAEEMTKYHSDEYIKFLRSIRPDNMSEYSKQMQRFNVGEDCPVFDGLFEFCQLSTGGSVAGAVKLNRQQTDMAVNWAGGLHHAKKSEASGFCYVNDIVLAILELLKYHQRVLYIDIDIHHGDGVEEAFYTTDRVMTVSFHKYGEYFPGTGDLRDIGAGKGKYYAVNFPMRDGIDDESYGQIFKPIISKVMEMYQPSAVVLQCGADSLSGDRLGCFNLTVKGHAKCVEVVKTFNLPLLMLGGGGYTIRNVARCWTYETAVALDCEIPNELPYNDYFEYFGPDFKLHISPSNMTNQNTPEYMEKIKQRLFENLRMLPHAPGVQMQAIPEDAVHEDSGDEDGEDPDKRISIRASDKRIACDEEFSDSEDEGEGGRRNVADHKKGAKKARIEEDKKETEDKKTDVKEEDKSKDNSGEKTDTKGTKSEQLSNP
Sequence (Q9Y618 395-498, further chain): as the sequence (Q9Y618 395-498, further chain) above
Entry class follows IC50: 1: < 3 µM; 2: ≥ 3 µM and < 9 µM; 3: ≥ 9 µM

smiles_repr: O=C(NNCCC1CCCC1)c1ccc(Br)cc1
assigned_class: 2
--
smiles_repr: CCCCNNC(=O)c1ccc(C(C)(C)C)cc1
assigned_class: 1
--
smiles_repr: CCCCCCNNC(=O)c1ccc(Br)cc1
assigned_class: 3
--
smiles_repr: CCCCNNC(=O)c1ccc(F)cc1
assigned_class: 3
--
smiles_repr: O=C(NNCCCC1CCCC1)c1ccc(Br)cc1
assigned_class: 3
--
smiles_repr: CN(C)c1ccc(C(=O)NNCC2CCCC2)cc1
assigned_class: 2
--
smiles_repr: O=C(NNCC1CCCC1)c1ccc(Br)cc1
assigned_class: 3
--
smiles_repr: CCCCNNC(=O)c1ccc(N(C)C)cc1
assigned_class: 1
--
smiles_repr: CCCCNNC(=O)c1ccc(OC)cc1
assigned_class: 1
--
smiles_repr: CCCCCNNC(=O)c1ccc(Br)cc1
assigned_class: 1
--
smiles_repr: CCCCNNC(=O)c1ccc(Cl)cc1
assigned_class: 2
